Tested on: human mTOR enzyme (Homo sapiens)
Sequence (P42345 1360-2549 limits assumed): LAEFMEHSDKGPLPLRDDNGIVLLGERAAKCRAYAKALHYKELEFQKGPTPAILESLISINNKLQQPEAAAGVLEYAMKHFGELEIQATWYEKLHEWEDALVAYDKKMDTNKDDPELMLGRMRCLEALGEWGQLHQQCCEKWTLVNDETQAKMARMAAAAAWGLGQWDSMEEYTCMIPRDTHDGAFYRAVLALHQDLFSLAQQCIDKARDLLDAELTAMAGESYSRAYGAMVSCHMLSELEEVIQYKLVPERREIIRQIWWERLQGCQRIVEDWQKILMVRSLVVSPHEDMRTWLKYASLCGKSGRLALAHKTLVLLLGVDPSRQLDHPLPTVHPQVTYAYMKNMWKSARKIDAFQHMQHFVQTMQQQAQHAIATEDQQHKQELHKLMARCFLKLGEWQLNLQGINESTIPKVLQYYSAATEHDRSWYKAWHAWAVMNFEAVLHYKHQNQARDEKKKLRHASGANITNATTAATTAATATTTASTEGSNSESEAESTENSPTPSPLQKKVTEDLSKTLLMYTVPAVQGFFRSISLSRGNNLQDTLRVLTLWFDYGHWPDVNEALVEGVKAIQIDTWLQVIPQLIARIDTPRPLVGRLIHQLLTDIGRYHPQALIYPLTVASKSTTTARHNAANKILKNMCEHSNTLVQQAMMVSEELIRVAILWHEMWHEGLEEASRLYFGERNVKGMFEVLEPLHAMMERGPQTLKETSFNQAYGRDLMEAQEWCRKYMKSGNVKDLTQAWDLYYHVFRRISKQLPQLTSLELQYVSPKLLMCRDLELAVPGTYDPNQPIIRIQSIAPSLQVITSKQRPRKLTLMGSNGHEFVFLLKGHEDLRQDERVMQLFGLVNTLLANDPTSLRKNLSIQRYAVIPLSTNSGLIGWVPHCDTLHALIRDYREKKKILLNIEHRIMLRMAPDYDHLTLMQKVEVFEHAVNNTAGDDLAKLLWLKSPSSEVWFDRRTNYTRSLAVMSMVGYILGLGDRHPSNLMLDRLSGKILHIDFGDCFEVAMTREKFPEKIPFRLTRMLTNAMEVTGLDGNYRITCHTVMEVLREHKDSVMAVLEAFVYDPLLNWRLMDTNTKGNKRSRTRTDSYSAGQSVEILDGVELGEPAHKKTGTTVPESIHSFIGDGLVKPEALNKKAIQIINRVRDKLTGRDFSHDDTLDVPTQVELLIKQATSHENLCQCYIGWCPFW
Method: HTRF mTOR enzyme (kinase) assay
Format: biochemical
Measurement parameters: rated class; 5 μM ATP, 0.2 μM GST-S6K; read-out: hMTOR IC50
pIC50: −log10 of the molar value.
Assay endpoint: pIC50

>>> df
                                   compound  assay_endpoint  recorded_value
0  CC(=O)c1c(N)n2ncc(-c3cnn(-c4cnn(C)c4)c3)c2nc1[C@H]1CC[C@@](O)(CO)CC1           pIC50    7.00 to 9.00
1  COCCO[C@]1(C(=O)c2nnc[nH]2)CC[C@H](c2nc3c(-c4cnn(-c5ccccc5)c4)cnn3c(N)c2S(C)(=O)=O)CC1           pIC50    7.00 to 9.00
2  CC(=O)c1c(C2CCC(O)(CO)CC2)nc2c(-c3cnc4ccc(F)cc4c3)cnn2c1N (stereo not shown)           pIC50    7.00 to 9.00
3  Nc1c(Br)c([C@H]2CC[C@](O)(CC(=O)O)CC2)nc2c(-c3cnn(-c4ccccc4)c3)cnn12           pIC50    7.00 to 9.00
4  COC1(CO)CCC(c2nc3c(-c4ccc(-c5ccccc5)nc4)cnn3c(N)c2Br)CC1 (stereo not shown)           pIC50    7.00 to 9.00
5  COCCO[C@]1(C(=O)O)CC[C@@H](c2nc3c(-c4cnc(-c5ncc(C)s5)nc4)cnn3c(N)c2S(C)(=O)=O)CC1           pIC50    7.00 to 9.00
6  C[C@]1(C(=O)O)CC[C@@H](c2nc3c(-c4ccc(-c5ccccc5)nc4)cnn3c(N)c2C#N)CC1           pIC50    7.00 to 9.00
